Origin of measurements: patent US20080181886A1

Biological target: T1, Murine APRIL (mouse, UniProt Q9D777 105-241, limits assumed)
T1 sequence (looked up): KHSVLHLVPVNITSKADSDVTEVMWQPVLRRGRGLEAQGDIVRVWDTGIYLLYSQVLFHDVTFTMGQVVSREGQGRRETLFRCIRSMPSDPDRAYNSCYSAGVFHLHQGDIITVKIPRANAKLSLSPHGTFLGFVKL
Experiment: shotgun scan, phage display
READOUT LABEL: F (APRIL)
Please give the numeric answer without any surrounding text.

[[record]]
binder = "SLSCRKEQGKFYDHLLRDCISCASICGQHPKQCAYFCENKAR (receptor, phage library variant, format as m9) [TACI_d2 L108A]"
readout_label = "F (APRIL)"
reported_result = 1

[[record]]
binder = "SLSCRKEAGKFYDHLLRDCISCASICGQHPKQCAYFCENKLR (receptor, phage library variant, format as m9) [TACI_d2 Q75A]"
readout_label = "F (APRIL)"
reported_result = 1.4

[[record]]
binder = "SLSCRKEQGEFYDHLLRDCISCASICGQHPKQCAYFCENKLR (receptor, phage library variant, format as m9) [TACI_d2 K77E]"
readout_label = "F (APRIL)"
reported_result = 1.4


Which measured F (APRIL) value corresponds to SLSCRKEQGKFYDHLLRDCISCASICGQHPKPCAYFCENKLR (receptor, phage library variant, format as m9) [TACI_d2 Q99P] ? 1.5
